- measurement target: glucagon receptor (GCGR), primary cAMP assay cell line (human, UniProt P47871 26-477)
- Sequence (P47871 26-477): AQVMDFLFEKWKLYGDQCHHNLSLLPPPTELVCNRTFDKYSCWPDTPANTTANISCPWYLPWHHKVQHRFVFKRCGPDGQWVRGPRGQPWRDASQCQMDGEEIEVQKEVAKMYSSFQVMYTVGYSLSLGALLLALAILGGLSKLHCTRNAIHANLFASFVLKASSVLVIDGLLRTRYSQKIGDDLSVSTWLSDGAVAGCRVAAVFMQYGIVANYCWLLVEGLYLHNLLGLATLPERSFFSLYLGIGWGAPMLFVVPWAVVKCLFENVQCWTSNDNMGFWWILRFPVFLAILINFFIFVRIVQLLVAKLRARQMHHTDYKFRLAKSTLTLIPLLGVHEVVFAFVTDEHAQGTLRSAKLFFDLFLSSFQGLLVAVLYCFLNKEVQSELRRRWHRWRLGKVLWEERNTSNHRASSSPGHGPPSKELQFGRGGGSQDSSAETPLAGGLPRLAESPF
- experiment notes: cell-based or functional assay
Starred links: 1 amine or outer side, 2 acyl side, 3 side chain; linkers in the order of their positions; H or OH if unused. Non-standard residues stand in square brackets, D forms with d. Groups on a side chain read outwards from the residue. Primed or numbered codes have the meaning given here. No end group written: not given here. *: point of attachment. γGlu = O=C(O)[C@H](CCC(=O)[*:2])N[*:1]; αMeF = C[C@](N)(Cc1ccccc1)C(=O)O; αMeK = C[C@](N)(CCCCN)C(=O)O; Lauroyl = CCCCCCCCCCCC(=O)*; αMeS = C[C@](N)(CO)C(=O)O; PEG2′ = not defined here; Aib = CC(C)(N)C(=O)O
Can you tell me cAMP Primary assay EC50, n2 for the items I'm about to list?
Give just the number in nM; leave the unit off.

Quick one: give measured cAMP Primary assay EC50, n2 for H[Aib]EGS[αMeF]TSDVSK([PEG2′-PEG2′-γGlu-Lauroyl])YLEGEAA[αMeK]K([PEG2′-PEG2′-γGlu-Lauroyl])FIAFK([PEG2′-PEG2′-γGlu-Lauroyl])VEGG-NH2 [SEQ ID NO: 478]
19.8

Quick one: give measured cAMP Primary assay EC50, n2 for H[Aib]EGS[αMeF]TSDK([PEG2′-PEG2′-γGlu-Lauroyl])SSYLEGEAA[αMeK]K([PEG2′-PEG2′-γGlu-Lauroyl])FIAK([PEG2′-PEG2′-γGlu-Lauroyl])VVEGG-NH2 [SEQ ID NO: 458]
20

Quick one: give measured cAMP Primary assay EC50, n2 for H[Aib]EGS[αMeF]TSDV[αMeS]SYK([PEG2′-PEG2′-γGlu-Lauroyl])EGK([PEG2′-PEG2′-γGlu-Lauroyl])AA[αMeK]EFIK([PEG2′-PEG2′-γGlu-Lauroyl])FVVEGG-NH2 [SEQ ID NO: 452]
19.7

Quick one: give measured cAMP Primary assay EC50, n2 for H[Aib]EGS[αMeF]TSDV[αMeS]SK([PEG2′-PEG2′-γGlu-Lauroyl])LEGEAA[αMeK]K([PEG2′-PEG2′-γGlu-Lauroyl])FIAK([PEG2′-PEG2′-γGlu-Lauroyl])VVEGG-NH2 [SEQ ID NO: 466]
20.2
